# Test system: A549
# Assay Method Text: Antiproliferative activity against human A549 cells after 48 hrs by CCK-8 assay
# Type: functional, cell-based
# Condition Label: A549, 48 h
pIC50: −log10 of the molar value.
Observation Type: pIC50

- Structure Smiles: "O=C(CCCC(=O)NCCNc1nonc1/C(=N/O)Nc1ccc(F)c(Br)c1)NO"
  Relation Operator: "<"
  Reading: 4.00
- Structure Smiles: "O=C(CCCCCC(=O)NCCNc1nonc1/C(=N/O)Nc1ccc(F)c(Br)c1)NO"
  Relation Operator: "="
  Reading: 4.39
- Structure Smiles: "O=C(NO)c1ccc(C(=O)NCCNc2nonc2/C(=N/O)Nc2ccc(F)c(Br)c2)cc1"
  Relation Operator: "="
  Reading: 4.05
- Structure Smiles: "Nc1ccccc1NC(=O)c1ccc(C(=O)NCCNc2nonc2/C(=N/O)Nc2ccc(F)c(Br)c2)s1"
  Relation Operator: "="
  Reading: 4.84
- Structure Smiles: "O=C(CCCCn1cc(-c2ccc(C(=O)NCCNc3nonc3/C(=N/O)Nc3ccc(F)c(Br)c3)cc2)nn1)NO"
  Relation Operator: "<"
  Reading: 4.00
- Structure Smiles: "O=C(CCCCCn1cc(-c2ccc(C(=O)NCCNc3nonc3/C(=N/O)Nc3ccc(F)c(Br)c3)cc2)nn1)NO"
  Relation Operator: "<"
  Reading: 4.00

###

# Target Or Test System: Indoleamine 2,3-dioxygenase 1 (Homo sapiens, UniProt P14902)
# Sequence (P14902 whole entry, the tested form may be a part): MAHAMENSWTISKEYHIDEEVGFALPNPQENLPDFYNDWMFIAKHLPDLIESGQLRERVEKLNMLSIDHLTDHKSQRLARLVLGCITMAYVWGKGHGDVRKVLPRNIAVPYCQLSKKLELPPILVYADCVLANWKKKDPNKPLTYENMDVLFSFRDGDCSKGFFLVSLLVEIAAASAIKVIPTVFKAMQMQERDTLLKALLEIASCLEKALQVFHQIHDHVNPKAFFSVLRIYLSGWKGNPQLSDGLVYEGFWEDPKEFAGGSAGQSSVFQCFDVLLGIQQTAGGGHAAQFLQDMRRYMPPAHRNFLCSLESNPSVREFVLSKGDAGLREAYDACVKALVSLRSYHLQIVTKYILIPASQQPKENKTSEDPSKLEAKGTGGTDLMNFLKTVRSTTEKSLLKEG
# Assay Method Text: Inhibition of recombinant human GST-tagged IDO1 (1 to 404 residues) using D-Tryptophan as substrate
pIC50: −log10 of the molar value.

- Structure Smiles: "O=C(CCCCCCC(=O)NCCNc1nonc1/C(=N/O)Nc1ccc(F)c(Br)c1)NO"
  pIC50: 6.85
- Structure Smiles: "O=C(/C=C/c1ccc(C(=O)NCCNc2nonc2/C(=N/O)Nc2ccc(F)c(Br)c2)cc1)NO"
  pIC50: 6.77
- Structure Smiles: "O=C(CCCCC(=O)NCCNc1nonc1/C(=N/O)Nc1ccc(F)c(Br)c1)NO"
  pIC50: 6.91
- Structure Smiles: "O=C(/C=C/c1cccc(C(=O)NCCNc2nonc2/C(=N/O)Nc2ccc(F)c(Br)c2)c1)NO"
  pIC50: 7.57

###

# Assay Method Text: AUC (0 to infinity) in Sprague-Dawley rat at 2 mg/kg, iv administered as single dose by LC-MS/MS analysis
# Format: ADME, organism-based
# Design: dose 2 mg/kg, time infinity, route intravenous
# Condition Label: in vivo

- Structure Smiles: "Nc1ccccc1NC(=O)c1ccc(C(=O)NCCNc2nonc2/C(=N/O)Nc2ccc(F)c(Br)c2)cc1"
  AUC(0-inf) (ng·h/mL): 3650

###

# Assay Method Text: Half life in Sprague-Dawley rat at 100 mg/kg, po administered as single dose via gavage by LC-MS/MS analysis
# Format: ADME, organism-based
# Condition Label: in vivo

- Structure Smiles: "Nc1ccccc1NC(=O)c1ccc(C(=O)NCCNc2nonc2/C(=N/O)Nc2ccc(F)c(Br)c2)cc1"
  Readout Unit: "h"
  half-life: 3.4
- Structure Smiles: "NS(=O)(=O)NCCNc1nonc1C(=NO)Nc1ccc(F)c(Br)c1"
  Readout Unit: "h"
  half-life: 4.5

###

# Target Or Test System: Protein deacetylase HDAC6 (Homo sapiens, UniProt Q9UBN7)
# Sequence (Q9UBN7 whole entry): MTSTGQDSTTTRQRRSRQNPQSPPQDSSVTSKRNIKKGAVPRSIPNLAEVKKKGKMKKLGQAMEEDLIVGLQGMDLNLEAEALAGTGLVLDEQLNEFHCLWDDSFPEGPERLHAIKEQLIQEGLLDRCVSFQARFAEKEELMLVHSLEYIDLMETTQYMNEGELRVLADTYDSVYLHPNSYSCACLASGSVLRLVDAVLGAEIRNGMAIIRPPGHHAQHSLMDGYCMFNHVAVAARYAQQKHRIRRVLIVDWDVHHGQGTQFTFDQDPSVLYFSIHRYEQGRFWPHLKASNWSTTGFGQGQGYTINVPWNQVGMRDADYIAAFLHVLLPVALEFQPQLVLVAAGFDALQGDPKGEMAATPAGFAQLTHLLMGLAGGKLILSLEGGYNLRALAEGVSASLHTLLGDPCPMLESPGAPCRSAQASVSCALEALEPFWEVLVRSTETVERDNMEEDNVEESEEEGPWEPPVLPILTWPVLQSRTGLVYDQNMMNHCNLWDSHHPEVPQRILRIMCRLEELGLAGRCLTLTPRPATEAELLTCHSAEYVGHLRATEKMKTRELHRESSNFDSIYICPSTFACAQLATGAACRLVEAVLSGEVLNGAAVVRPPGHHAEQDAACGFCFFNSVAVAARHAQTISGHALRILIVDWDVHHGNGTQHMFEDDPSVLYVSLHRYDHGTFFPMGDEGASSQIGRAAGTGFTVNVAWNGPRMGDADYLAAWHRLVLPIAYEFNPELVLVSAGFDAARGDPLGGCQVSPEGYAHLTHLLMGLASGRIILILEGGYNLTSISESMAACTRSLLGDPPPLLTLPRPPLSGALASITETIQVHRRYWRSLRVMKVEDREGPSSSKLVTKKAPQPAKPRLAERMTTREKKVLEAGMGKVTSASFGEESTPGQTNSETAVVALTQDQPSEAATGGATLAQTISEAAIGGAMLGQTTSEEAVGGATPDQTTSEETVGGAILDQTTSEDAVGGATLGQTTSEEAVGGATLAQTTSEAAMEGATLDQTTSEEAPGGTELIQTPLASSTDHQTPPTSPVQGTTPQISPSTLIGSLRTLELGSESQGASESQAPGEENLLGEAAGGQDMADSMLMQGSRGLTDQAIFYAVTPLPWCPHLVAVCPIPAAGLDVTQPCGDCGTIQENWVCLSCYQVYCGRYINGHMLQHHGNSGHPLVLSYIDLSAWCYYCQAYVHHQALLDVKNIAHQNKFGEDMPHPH
pIC50: −log10 of the molar value.

- Structure Smiles: "Nc1ccccc1NC(=O)c1ccc(C(=O)NCCNc2nonc2/C(=N/O)Nc2ccc(F)c(Br)c2)cc1"
  Target Or Test System: "Protein deacetylase HDAC6 (Homo sapiens, UniProt Q9UBN7)"
  pIC50: 7.15

###

# Assay Method Text: Tmax in Sprague-Dawley rat at 2 mg/kg, iv administered as single dose by LC-MS/MS analysis
# Format: ADME, organism-based
# Condition Label: in vivo
Observation Type: Tmax (min)

- Structure Smiles: "Nc1ccccc1NC(=O)c1ccc(C(=O)NCCNc2nonc2/C(=N/O)Nc2ccc(F)c(Br)c2)cc1"
  Reading: 4.98

###

# System: A549
# Assay Method Text: Antiproliferative activity against human A549 cells after 48 hrs by CCK-8 assay
# Format: functional, cell-based
# Condition Label: A549, 48 h
pIC50: −log10 of the molar value.

- Compound: "O=C(/C=C/c1ccc(C(=O)NCCNc2nonc2/C(=N/O)Nc2ccc(F)c(Br)c2)cc1)NO"
  Relation Operator: "="
  pIC50: 4.59
- Compound: "O=C(CCCCC(=O)NCCNc1nonc1/C(=N/O)Nc1ccc(F)c(Br)c1)NO"
  Relation Operator: "<"
  pIC50: 4.00
- Compound: "Nc1ccccc1NC(=O)c1ccc(C(=O)NCCNc2nonc2/C(=N/O)Nc2ccc(F)c(Br)c2)cc1"
  Relation Operator: "="
  pIC50: 4.78
- Compound: "O=C(CCCCCCC(=O)NCCNc1nonc1/C(=N/O)Nc1ccc(F)c(Br)c1)NO"
  Relation Operator: "="
  pIC50: 4.44
- Compound: "O=C(/C=C/c1cccc(C(=O)NCCNc2nonc2/C(=N/O)Nc2ccc(F)c(Br)c2)c1)NO"
  Relation Operator: "="
  pIC50: 4.38
- Compound: "O=C(CCCCCCn1cc(-c2ccc(C(=O)NCCNc3nonc3/C(=N/O)Nc3ccc(F)c(Br)c3)cc2)nn1)NO"
  Relation Operator: "="
  pIC50: 4.34
- Compound: "NS(=O)(=O)NCCNc1nonc1/C(=N/O)Nc1ccc(F)c(Br)c1 [EPACADOSTAT]"
  Relation Operator: "<"
  pIC50: 4.00
- Compound: "Nc1ccccc1NC(=O)c1cccc(C(=O)NCCNc2nonc2/C(=N/O)Nc2ccc(F)c(Br)c2)c1"
  Relation Operator: "="
  pIC50: 4.56
- Compound: "Nc1ccccc1NC(=O)c1ccc(C(=O)NCCNc2nonc2/C(=N/O)Nc2ccc(F)c(Br)c2)cn1"
  Relation Operator: "="
  pIC50: 4.69

###

# Assay Method Text: Solubility of the compound in water
# Assay type: physicochemical
Observation Type: solubility

- Structure Smiles: "Nc1ccccc1NC(=O)c1ccc(C(=O)NCCNc2nonc2/C(=N/O)Nc2ccc(F)c(Br)c2)cc1"
  Reading: "< 10 µg/mL"

###

# Assay Method Text: Half life in mouse liver microsomes at 1 uM by LC-MS/MS analysis
# Assay type: ADME, microsome
Observation Type: half-life at 1 µM (min)

- Structure Smiles: "Nc1ccccc1NC(=O)c1ccc(C(=O)NCCNc2nonc2/C(=N/O)Nc2ccc(F)c(Br)c2)cc1"
  Readout Unit: "min"
  Reading: 48.4
